Test system: AncSZ;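 also: 11-residue human phosphosite peptides and single-mutation variants displayed on the E. coli surface, counted by deep sequencing, each peptide's frequency after selection divided by its frequency in the unselected input library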;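 also: frequency after pTyr selection over input frequency; kinase dosed for 20-30% of maximal phosphorylation in three min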
run description: phosphorylation enrichment, bacterial display (enrichment ratio); higher = better substrate or ligand; peptides without Tyr show the background
// class assignment uses phosphorylation enrichment with these ranges: 1 (below 0.8), 2 (0.8 to below 1), 3 (1 or more)

Study these solved cases before continuing.
# sequence input, qualitative label
data = [
    ("LNEWHYGGLTG [PGAM2_Y92_R90W]", 1),
    ("IFHLSYIHNCE [PDE6B_Y227_L228I_YF]", 3),
    ("DDERGYRRVRC [GIGYF2_Y268_S273C]", 1),
    ("QTWKTYVRHQQ [SFI1_Y164_Q167H]", 2),
    ("FGSLLYKFAFK [FANCD2_Y458_YF]", 2),
]

Could you place KKKKQYKGKFL [CASK_Y708_D710G_YF] in its proper category? Many thanks.
1

Could you place KPRKLYTIKKP [BRD2_Y715_P714L] in its proper category? Many thanks.
1

Could you place NQELIYEGQRL [TBK1_Y354_R357Q] in its proper category? Many thanks.
3

Could you place GITVTYTIPKK [UBA5_Y372_A371T] in its proper category? Many thanks.
2

Could you place PVDVAYRHGFF [PLEC_Y2967_R2969H_YF] in its proper category? Many thanks.
1

Could you place RENGPYFASFP [GDAP2_Y487_T489A_YF] in its proper category? Many thanks.
3

Could you place PLYGEYFTLQI [TP53_Y327_D324Y] in its proper category? Many thanks.
3

Could you place GLTSTYVGIRK [ROBO1_Y932_A933V] in its proper category? Many thanks.
1

Could you place LNPFIYSLRNR [OR1A1_Y288] in its proper category? Many thanks.
3

Could you place ATARPYRPYII [LRP5_Y1528] in its proper category? Many thanks.
1

Could you place TDIVAYSGRVQ [SPTBN2_Y477] in its proper category? Many thanks.
2

Could you place VASIFYTLVIP [OR8K3_Y277] in its proper category? Many thanks.
3
